All values here come from ChEMBL document CHEMBL1201862.

System: UACC-62
Experiment: NCI tumour cell line growth inhibition, 48 h
Active and inactive are the calls of the source. No stated cut-off is given here; in the data, active = GI50 up to about 1.1 µM and inactive = higher.
Possible outcomes: y for active, n for inactive

Nc1cc(S(N)(=O)=O)ccc1SSc1ccc(S(N)(=O)=O)cc1N :: n
CC1=C(C(=O)Nc2ccccc2C)C(c2ccccc2)C(C(=O)Nc2ccccc2C)=C(C)N1 :: n
O=C(Nc1ccc([N+](=O)[O-])cc1C(=O)O)c1ccc([N+](=O)[O-])cc1 :: n
COc1ccc(C(=O)N(Cc2cccnc2)C(=S)N(Cc2cccnc2)C(=O)c2ccc(OC)cc2)cc1 :: n
COc1ccc2c3c([nH]c2c1)CCN(Cc1ccccc1)C3 :: n
CC[C@@]1(OC(=O)C(N)CCC(=O)O)C(=O)OCc2c1cc1n(c2=O)Cc2cc3ccccc3nc2-1 (stereo partly drawn) :: y
CN(C)CC1CCC(CN(C)C)C1=NO (stereo not drawn) :: n
COC1(C(C)(C)C)C=C(C(C)(C)C)P(=O)(O)O1 (stereo not drawn) :: n
O=S1(=O)CCC2=CC(C(F)(F)F)=CC(C(F)(F)F)=CN21 :: n
CCCC/C=C1/CCC(CN(C)C)C1=O (stereo not drawn) :: n
CCOC(=O)C1C(=O)CC(O)(OCC)C(C(=O)OCC)C1c1ccc(OC)cc1 (stereo not drawn) :: n
COc1cc(C2c3cc4c(cc3OC3(OC)COC(=O)C23)OCO4)cc(OC)c1OC (stereo not drawn) :: y
Cn1c2c(c3ccccc31)CCN(CCCN1CCN(c3ccccc3)CC1)C2=O :: n
O=c1n(CCO)nc2n1CCCN2 :: n
COC(=O)c1c(O)ccc2c1c1cc3ccccc3c(O)c1n2Cc1ccccc1Cl :: n
O=c1c2ccccc2c(=O)c2c1c1[nH]c3ccccc3c1c1c(=O)c3ccccc3c(=O)c21 :: n
CCN(CC)CC1CCCCN1CC(=O)N1CC(C)C(=O)Nc2ccccc21 (stereo not drawn) :: n
CNC(=O)Nc1cc2c3c(c1)CCCN3CCC2 :: n
CCOC(=O)C1(C(=O)OCC)C(C(C)(C)C)=C(C)c2ccccc21 :: n
COc1ccc(/C=C/C(=O)Oc2ccccc2OC)cc1 :: n
O=[N+]([O-])c1ccc(CNC2=NNS(=O)(=O)c3ccccc32)cc1 :: n
O=C(NCc1ccccc1)c1cnc(Cl)cn1 :: n
Clc1ccc(OCC2NC3C=CC32)cn1 (stereo not drawn) :: n

* * *

Test system: HOP-62
Assay: NCI tumour cell line growth inhibition, 48 h
Active and inactive are the calls of the source. Cut-off read from the data, not from the text of the source: active = GI50 up to about 1.1 µM and inactive = higher.
quantity-kind: GI50

COC(=O)C1=C(O)C(C(=O)OC)[C@]2(O)[C@H](C(=O)OC)[C@H]1C[C@@H](c1cccc(OC)c1)[C@H]2C(=O)OC (stereo not given in full) :: 31 µM (inactive)
COc1ccc2c3c([nH]c2c1)CCN(Cc1ccccc1)C3 :: 21.8 µM (inactive)
N/C(=N\Nc1ccc(Cl)cc1)c1cnccn1 :: 85.5 µM (inactive)
N=C(N)Nc1nc2cc([N+](=O)[O-])ccc2[nH]1 :: > 100 µM (inactive)
Clc1ccc(OCC2NC3C=CC32)cn1 (stereo not given) :: > 100 µM (inactive)
Cc1ccc(-n2nnc(C(N)=O)c2O)cc1 :: > 100 µM (inactive)
CC(C)NCCCC(C)Nc1ccnc2ccc3nn(C)nc3c12 (stereo not given) :: 52.7 µM (inactive)
CCOC(=O)C(SCCO)C(C(=O)OCC)n1cnc2c(N)ncnc21 (stereo not given) :: 21.7 µM (inactive)
COc1ccc(-n2cnc3c(NC(Cc4ccccc4)C(=O)O)ncnc32)cc1 (stereo not given) :: > 100 µM (inactive)
COc1cc2c(cc1OCCCCN1CCN(CCCCOc3cc4c(cc3OC)C(=O)N3CCC[C@H]3C=N4)CC1)N=C[C@@H]1CCCN1C2=O :: 0.0236 µM (active)
